The measured values listed here are drawn from paper PMC6016464.

- measured.on: T1, A1 protein (mouse, residues 1-152, P104K C113S, used as wild type) (mouse)
- T1 sequence (Q07440 1-152 with P104K C113S, looked up): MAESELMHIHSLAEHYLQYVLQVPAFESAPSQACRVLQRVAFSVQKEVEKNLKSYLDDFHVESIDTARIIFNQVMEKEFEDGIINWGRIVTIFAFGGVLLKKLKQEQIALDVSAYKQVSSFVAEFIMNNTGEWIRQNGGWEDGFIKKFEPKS
- assay.method.text: stopped-flow fluorescence kinetics + other: fluorescence dissociation kinetics with competitor; Kd calculated as the ratio koff/kon of the kinetic rate constants; 25 °C; 50 mM sodium phosphate, 0.05% (v/v) Tween 20, pH 7.0
pKd: −log10 of the molar value. Where no end group is shown, it is not given here. The star is where a group is joined. TAMRA = 5-carboxytetramethylrhodamine, CN(C)c1ccc2c(-c3ccc(C(=O)*)cc3C(=O)[O-])c3ccc(=[N+](C)C)cc-3oc2c1
measured.attribute: pKd

Before answering, review these 8 worked examples.
{TAMRA}-SESQEEIIHNIARHLAQIGDEMDHNAQPTLVRQLA (peptide, UniProt P70444 76-110, looked up, BID, mouse, residues 76-110, UniProt P70444; source: synthetic peptide (Biomatik)) [BID I101A peptide, TAMRA-labelled] = 10.66
{TAMRA}-SESQEAIIHNIARHLAQIGDEMDHNIQPTLVRQLA (peptide, UniProt P70444 76-110, looked up, BID, mouse, residues 76-110, UniProt P70444; source: synthetic peptide (Biomatik)) [BID E81A peptide, TAMRA-labelled] = 10.70
{TAMRA}-RVEEEEWAREIGAQLRRAADDLNAQYERRRQEEQH [PUMA peptide (mouse, residues 127-161, M144A, used as wild type), TAMRA-labelled] = 10.07
{TAMRA}-SESQEEIIHNIARHLAQIGDAMDHNIQPTLVRQLA (peptide, UniProt P70444 76-110, looked up, BID, mouse, residues 76-110, UniProt P70444; source: synthetic peptide (Biomatik)) [BID E96A peptide, TAMRA-labelled] = 10.82
{TAMRA}-SESQEEIIHNIAAHLAQIGDEMDHNIQPTLVRQLA (peptide, UniProt P70444 76-110, looked up, BID, mouse, residues 76-110, UniProt P70444; source: synthetic peptide (Biomatik)) [BID R88A peptide, TAMRA-labelled] = 9.80
{TAMRA}-RVEEEEWAREIGAQLRRAADDLNGQYERRRQEEQH [PUMA A150G peptide (on the M144A wild type), TAMRA-labelled] = 9.35
{TAMRA}-RVEEEEWAREIGGQLRRAADDLNGQYERRRQEEQH (peptide, UniProt Q99ML1 127-161, looked up, PUMA, mouse, residues 127-161, UniProt Q99ML1; Double mutant; also called A150G (A139G); source: synthetic peptide (Biomatik)) [PUMA (A139G A150G) peptide (on the M144A wild type), TAMRA-labelled] = 8.85
{TAMRA}-SESQEEIIHNIARHLAQIGDEADHNIQPTLVRQLA (peptide, UniProt P70444 76-110, looked up, BID, mouse, residues 76-110, UniProt P70444; source: synthetic peptide (Biomatik)) [BID M97A peptide, TAMRA-labelled] = 9.72

P. {TAMRA}-RVEEEEWAREIGAQLRRAADDLNAQAERRRQEEQH [PUMA Y152A peptide (on the M144A wild type), TAMRA-labelled]
Q. {TAMRA}-RVEEEEWAREIGAQLRRAADDANAQYERRRQEEQH [PUMA L148A peptide (on the M144A wild type), TAMRA-labelled]
R. {TAMRA}-RVEEEEWARAIGAQLRRAADDLNAQYERRRQEEQH [PUMA E136A peptide (on the M144A wild type), TAMRA-labelled]
S. {TAMRA}-RVEEEEWAREIGAQARRAADDLNAQYERRRQEEQH [PUMA L141A peptide (on the M144A wild type), TAMRA-labelled]
Arrange by pKd, high to low. Record the ranking as a list of labels in the requested order.
R, P, Q, S
(R: 10.34, P: 9.31, Q: 8.15, S: 6.13)
